Assay: Stability of (7aS,2′S)-2-oxo-clopidogrel in plasma at −80° C., screening of reducing agent type (Example 5)
Type: in vitro ADME
Conditions: blank plasma containing TCEP 100 mg/ml, TCEP 100 mg/ml, theoretical 12.0 ng/mL, day 10, read-out: Recovery rate
Description: S2. […] ESI ion source, positive ion detection in multiple reaction monitoring mode (MRM); the quantitatively analyzed ions (7aS,2′S)-2-oxo-clopidogrel: m/z 338.100→155.000, IS: m/z 341.100→158.000, a capillary voltage of 4.0 KV, a cone voltage of 25 V, a desolvation gas temperature of 400° C. and a source temperature of 150° C. […]
QUANTITY KIND: recovery at 10 day, 12 ng/mL (%)
Field: numeric (%). Do not append units.

Enquiry: Please report the recorded recovery at 10 day, 12 ng/mL for `COC(=O)[C@H](c1ccccc1Cl)N1CC[C@@H]2SC(=O)C=C2C1` .
Return: 100

----------
assay: Stability of (7aS,2′S)-2-oxo-clopidogrel in plasma at −80° C., screening of reducing agent type (Example 5); format: in vitro ADME; details: plasma, DTT 100 mg/ml, theoretical 12.0 ng/mL, day 60, read-out: Recovery rate
QUANTITY KIND: recovery at 60 day, 12 ng/mL (%)
Field: numeric (%). Do not append units.

Enquiry: Please report the recorded recovery at 60 day, 12 ng/mL for COC(=O)[C@H](c1ccccc1Cl)N1CC[C@@H]2SC(=O)C=C2C1 [(7aS,2′S)-2-oxo-clopidogrel] .
Return: 92.4

----------
experiment: Stability of (7aS,2′S)-2-oxo-clopidogrel in plasma, screening of TCEP dosage (Example 4); assay type: in vitro ADME; conditions: plasma, TCEP 100 mg/ml; theoretical 12.0 ng/mL; on ice; 120 min; read-out: Recovery rate
QUANTITY KIND: recovery at 120 min, 12 ng/mL (%)
Field: numeric (%). Do not append units.

Enquiry: Please report the recorded recovery at 120 min, 12 ng/mL for COC(=O)[C@H](c1ccccc1Cl)N1CC[C@@H]2SC(=O)C=C2C1 [(7aS,2′S)-2-oxo-clopidogrel] .
Return: 98.3

----------
assay: Stability of (7aS,2′S)-2-oxo-clopidogrel in plasma, screening of TCEP dosage (Example 4); format: in vitro ADME; settings: plasma without TCEP, No TCEP; theoretical 12.0 ng/mL; on ice; 120 min; read-out: Recovery rate
QUANTITY KIND: recovery at 120 min, 12 ng/mL (%)
Field: numeric (%). Do not append units.

Enquiry: Please report the recorded recovery at 120 min, 12 ng/mL for `COC(=O)[C@H](c1ccccc1Cl)N1CC[C@@H]2SC(=O)C=C2C1` .
Return: 60.3

----------
assay: Stability of (7aS,2′S)-2-oxo-clopidogrel in plasma, screening of TCEP dosage (Example 4); assay type: in vitro ADME; conditions: plasma, TCEP 50 mg/ml; theoretical 12.0 ng/mL; on ice; 0 min; read-out: Recovery rate
QUANTITY KIND: recovery at 0 min, 12 ng/mL

Enquiry: Please report the recorded recovery at 0 min, 12 ng/mL for `COC(=O)[C@H](c1ccccc1Cl)N1CC[C@@H]2SC(=O)C=C2C1` .
Return: 102%

----------
experiment: Stability of (7aS,2′S)-2-oxo-clopidogrel in plasma, screening of TCEP dosage (Example 4); type: in vitro ADME; conditions: plasma, TCEP 50 mg/ml; theoretical 0.1 ng/mL; room temperature; 60 min; read-out: Recovery rate
QUANTITY KIND: recovery at 60 min, 0.1 ng/mL (%)
Field: numeric (%). Do not append units.

Enquiry: Please report the recorded recovery at 60 min, 0.1 ng/mL for `COC(=O)[C@H](c1ccccc1Cl)N1CC[C@@H]2SC(=O)C=C2C1` .
Return: 91.4
